Data provenance is ChEMBL document CHEMBL1132284.

molecular target: Integrin alpha-IIb/beta-3 (Homo sapiens, UniProt P05106+P08514); experiment: In vitro inhibition of biotinylated fibrinogen binding to immobilized fibrinogen receptor.
Sequence (P05106 27-788 limits assumed): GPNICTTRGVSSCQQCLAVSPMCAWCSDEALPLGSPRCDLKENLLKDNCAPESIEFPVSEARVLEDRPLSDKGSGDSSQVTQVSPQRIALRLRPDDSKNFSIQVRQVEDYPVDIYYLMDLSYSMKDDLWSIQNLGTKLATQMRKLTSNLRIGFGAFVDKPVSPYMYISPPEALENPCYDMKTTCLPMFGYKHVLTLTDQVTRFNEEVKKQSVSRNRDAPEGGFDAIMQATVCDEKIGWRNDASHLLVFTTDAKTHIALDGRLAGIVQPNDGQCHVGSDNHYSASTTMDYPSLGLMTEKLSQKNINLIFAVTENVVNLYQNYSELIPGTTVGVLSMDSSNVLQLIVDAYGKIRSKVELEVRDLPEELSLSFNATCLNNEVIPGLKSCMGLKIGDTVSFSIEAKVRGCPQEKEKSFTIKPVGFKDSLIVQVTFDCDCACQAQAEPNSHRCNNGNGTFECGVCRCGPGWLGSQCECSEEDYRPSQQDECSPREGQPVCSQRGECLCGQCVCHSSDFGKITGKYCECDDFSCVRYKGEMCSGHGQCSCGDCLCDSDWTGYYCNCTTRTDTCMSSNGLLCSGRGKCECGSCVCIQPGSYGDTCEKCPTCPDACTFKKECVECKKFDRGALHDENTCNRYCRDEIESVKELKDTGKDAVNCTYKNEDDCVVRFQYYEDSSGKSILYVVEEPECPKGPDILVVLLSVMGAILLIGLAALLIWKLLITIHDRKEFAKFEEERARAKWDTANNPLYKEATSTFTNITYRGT
Sequence (P08514 32-887 limits assumed): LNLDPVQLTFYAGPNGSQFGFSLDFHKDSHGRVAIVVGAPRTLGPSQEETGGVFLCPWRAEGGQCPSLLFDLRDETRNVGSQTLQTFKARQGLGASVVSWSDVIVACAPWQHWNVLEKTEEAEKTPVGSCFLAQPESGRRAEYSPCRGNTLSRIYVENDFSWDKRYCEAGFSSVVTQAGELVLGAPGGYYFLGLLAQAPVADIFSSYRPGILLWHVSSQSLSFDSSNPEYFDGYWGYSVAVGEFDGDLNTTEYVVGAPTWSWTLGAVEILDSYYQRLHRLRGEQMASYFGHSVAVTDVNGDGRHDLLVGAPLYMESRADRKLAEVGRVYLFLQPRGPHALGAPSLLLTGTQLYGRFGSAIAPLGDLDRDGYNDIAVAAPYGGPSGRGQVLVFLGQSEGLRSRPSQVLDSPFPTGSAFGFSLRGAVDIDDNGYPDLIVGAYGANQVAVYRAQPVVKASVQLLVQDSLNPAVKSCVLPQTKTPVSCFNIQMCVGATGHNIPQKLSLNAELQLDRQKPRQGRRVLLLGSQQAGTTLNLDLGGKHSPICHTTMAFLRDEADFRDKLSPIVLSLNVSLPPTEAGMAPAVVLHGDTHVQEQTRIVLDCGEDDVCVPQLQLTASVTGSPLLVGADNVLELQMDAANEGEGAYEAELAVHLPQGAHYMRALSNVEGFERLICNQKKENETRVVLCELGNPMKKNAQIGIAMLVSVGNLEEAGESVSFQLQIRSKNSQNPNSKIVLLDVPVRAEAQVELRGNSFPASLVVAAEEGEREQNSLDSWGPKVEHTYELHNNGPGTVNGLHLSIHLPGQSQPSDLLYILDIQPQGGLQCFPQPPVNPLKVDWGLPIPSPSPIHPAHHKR
Sequence (P08514 891-1039 limits assumed): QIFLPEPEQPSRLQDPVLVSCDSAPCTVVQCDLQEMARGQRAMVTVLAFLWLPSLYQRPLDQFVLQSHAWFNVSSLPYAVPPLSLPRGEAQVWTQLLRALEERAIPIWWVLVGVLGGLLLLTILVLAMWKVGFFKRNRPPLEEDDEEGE
Record form. Attribute: pIC50. Fill in for each entry.
Answer as the number alone; pIC50 is minus log10 of concentration in mol/L.

// `O=C(O)C[C@H](NC(=O)[C@@H]1CCCN(C(=O)CCC2CCNCC2)C1)c1cncc(Br)c1` : pIC50 value = 9.68

Value of measured pIC50 for the entry `O=C(O)C[C@@H](NC(=O)[C@@H]1CCCN(C(=O)CCC2CCNCC2)C1)c1cccnc1` : 9.44

// sample O=C(O)C[C@@H](NC(=O)[C@@H]1CCCN(C(=O)CCC2CCNCC2)C1)c1cnc2ccccc2c1 (stereo in doubt; 34) , its pIC50 was 9.43

# compound `CC(C)(C)C#C[C@H](CC(=O)O)NC(=O)[C@@H]1CCCN(C(=O)CCC2CCNCC2)C1` ; its pIC50 = 8.25

pIC50 measured on `O=C(O)C[C@@H](Cc1ccccc1)NC(=O)[C@@H]1CCCN(C(=O)CCC2CCNCC2)C1` = 9.43

Value of pIC50 reported for the compound O=C(O)CC(NC(=O)C1CCCN(C(=O)CCC2CCNCC2)C1)c1cncc(-c2ccccc2)c1 (stereo not drawn) is 8.74

Short answer for `CC(C)(C)C#C[C@@H](CC(=O)O)NC(=O)[C@@H]1CCCN(C(=O)CCC2CCNCC2)C1` : pIC50 was 7.38

// pIC50 value for O=C(O)CC(NC(=O)C1CCCN(C(=O)CCC2CCNCC2)C1)c1cncc(-c2cccc([N+](=O)[O-])c2)c1 (stereo not drawn) : 7.85
